- test.parameters: in THF, 293.28 K
observed.property: solubility (mole fraction)
Numbers only.

(Q) Name the recorded solubility (mole fraction) for O=C1CCC(c2ccc(Cl)c(Cl)c2)c2ccccc21 (stereo unspecified) .
(A) 0.109

---

- test.parameters: in DMF, 308.28 K
observed.property: solubility (mole fraction)

(Q) Name the recorded solubility (mole fraction) for O=C1CCC(c2ccc(Cl)c(Cl)c2)c2ccccc21 (stereo unspecified) .
(A) 0.106

---

- test.parameters: in THF, 288.33 K
observed.property: solubility (mole fraction)
Give bare numbers.

(Q) Name the recorded solubility (mole fraction) for O=C1CCC(c2ccc(Cl)c(Cl)c2)c2ccccc21 (stereo unspecified) .
(A) 0.096

---

- test.parameters: in ethanol, 298.04 K
observed.property: solubility (mole fraction)
Give bare numbers.

(Q) Name the recorded solubility (mole fraction) for O=C1CCC(c2ccc(Cl)c(Cl)c2)c2ccccc21 (stereo unspecified) .
(A) 0.00303

---

- test.parameters: in toluene, 303.14 K
observed.property: solubility (mole fraction)

(Q) Name the recorded solubility (mole fraction) for O=C1CCC(c2ccc(Cl)c(Cl)c2)c2ccccc21 (stereo unspecified) .
(A) 0.0924

---

- test.parameters: in ethanol, 318.74 K
observed.property: solubility (mole fraction)
Answers are plain numbers.

(Q) Name the recorded solubility (mole fraction) for O=C1CCC(c2ccc(Cl)c(Cl)c2)c2ccccc21 (stereo unspecified) .
(A) 0.00852

---

- test.parameters: in isopropanol, 298.33 K
observed.property: solubility (mole fraction)

(Q) Name the recorded solubility (mole fraction) for O=C1CCC(c2ccc(Cl)c(Cl)c2)c2ccccc21 (stereo unspecified) .
(A) 0.00278

---

- test.parameters: in isopropanol, 308.46 K
observed.property: solubility (mole fraction)
One number for each entry.

(Q) Name the recorded solubility (mole fraction) for O=C1CCC(c2ccc(Cl)c(Cl)c2)c2ccccc21 (stereo unspecified) .
(A) 0.00496

---

- test.parameters: in ethanol, 283.12 K
observed.property: solubility (mole fraction)
One number for each entry.

(Q) Name the recorded solubility (mole fraction) for O=C1CCC(c2ccc(Cl)c(Cl)c2)c2ccccc21 (stereo unspecified) .
(A) 0.00171

---

- test.parameters: in isopropanol, 288.33 K
observed.property: solubility (mole fraction)

(Q) Name the recorded solubility (mole fraction) for O=C1CCC(c2ccc(Cl)c(Cl)c2)c2ccccc21 (stereo unspecified) .
(A) 0.00163

---

- test.parameters: in isopropanol, 293.07 K
observed.property: solubility (mole fraction)
Give bare numbers.

(Q) Name the recorded solubility (mole fraction) for O=C1CCC(c2ccc(Cl)c(Cl)c2)c2ccccc21 (stereo unspecified) .
(A) 0.00209

---

- test.parameters: in acetone, 318.56 K
observed.property: solubility (mole fraction)
Give bare numbers.

(Q) Name the recorded solubility (mole fraction) for O=C1CCC(c2ccc(Cl)c(Cl)c2)c2ccccc21 (stereo unspecified) .
(A) 0.0871

---

- test.parameters: in methanol, 298.04 K
observed.property: solubility (mole fraction)
One number for each entry.

(Q) Name the recorded solubility (mole fraction) for O=C1CCC(c2ccc(Cl)c(Cl)c2)c2ccccc21 (stereo unspecified) .
(A) 0.00235

---

- test.parameters: in acetone, 303.23 K
observed.property: solubility (mole fraction)
Give bare numbers.

(Q) Name the recorded solubility (mole fraction) for O=C1CCC(c2ccc(Cl)c(Cl)c2)c2ccccc21 (stereo unspecified) .
(A) 0.0397

---

- test.parameters: in isopropanol, 303.36 K
observed.property: solubility (mole fraction)
Numbers only.

(Q) Name the recorded solubility (mole fraction) for O=C1CCC(c2ccc(Cl)c(Cl)c2)c2ccccc21 (stereo unspecified) .
(A) 0.0037

---

- test.parameters: in methanol, 293.42 K
observed.property: solubility (mole fraction)
One number for each entry.

(Q) Name the recorded solubility (mole fraction) for O=C1CCC(c2ccc(Cl)c(Cl)c2)c2ccccc21 (stereo unspecified) .
(A) 0.00186

---

- test.parameters: in acetone, 298.28 K
observed.property: solubility (mole fraction)

(Q) Name the recorded solubility (mole fraction) for O=C1CCC(c2ccc(Cl)c(Cl)c2)c2ccccc21 (stereo unspecified) .
(A) 0.0321

---

- test.parameters: in isopropanol, 313.26 K
observed.property: solubility (mole fraction)
One number for each entry.

(Q) Name the recorded solubility (mole fraction) for O=C1CCC(c2ccc(Cl)c(Cl)c2)c2ccccc21 (stereo unspecified) .
(A) 0.00649

---

- test.parameters: in toluene, 318.34 K
observed.property: solubility (mole fraction)
One number for each entry.

(Q) Name the recorded solubility (mole fraction) for O=C1CCC(c2ccc(Cl)c(Cl)c2)c2ccccc21 (stereo unspecified) .
(A) 0.161

---

- test.parameters: in toluene, 308.46 K
observed.property: solubility (mole fraction)
Answers are plain numbers.

(Q) Name the recorded solubility (mole fraction) for O=C1CCC(c2ccc(Cl)c(Cl)c2)c2ccccc21 (stereo unspecified) .
(A) 0.112

---

- test.parameters: in acetone, 288.02 K
observed.property: solubility (mole fraction)
Numbers only.

(Q) Name the recorded solubility (mole fraction) for O=C1CCC(c2ccc(Cl)c(Cl)c2)c2ccccc21 (stereo unspecified) .
(A) 0.0217

---

- test.parameters: in THF, 278.04 K
observed.property: solubility (mole fraction)
Answers are plain numbers.

(Q) Name the recorded solubility (mole fraction) for O=C1CCC(c2ccc(Cl)c(Cl)c2)c2ccccc21 (stereo unspecified) .
(A) 0.0699

---

- test.parameters: in methanol, 288.28 K
observed.property: solubility (mole fraction)
Numbers only.

(Q) Name the recorded solubility (mole fraction) for O=C1CCC(c2ccc(Cl)c(Cl)c2)c2ccccc21 (stereo unspecified) .
(A) 0.00141

---

- test.parameters: in DMF, 293.13 K
observed.property: solubility (mole fraction)
Give bare numbers.

(Q) Name the recorded solubility (mole fraction) for O=C1CCC(c2ccc(Cl)c(Cl)c2)c2ccccc21 (stereo unspecified) .
(A) 0.059

---

- test.parameters: in isopropanol, 318.54 K
observed.property: solubility (mole fraction)
One number for each entry.

(Q) Name the recorded solubility (mole fraction) for O=C1CCC(c2ccc(Cl)c(Cl)c2)c2ccccc21 (stereo unspecified) .
(A) 0.00864

---

- test.parameters: in DMF, 288.12 K
observed.property: solubility (mole fraction)

(Q) Name the recorded solubility (mole fraction) for O=C1CCC(c2ccc(Cl)c(Cl)c2)c2ccccc21 (stereo unspecified) .
(A) 0.0487

---

- test.parameters: in acetone, 323.57 K
observed.property: solubility (mole fraction)
Give bare numbers.

(Q) Name the recorded solubility (mole fraction) for O=C1CCC(c2ccc(Cl)c(Cl)c2)c2ccccc21 (stereo unspecified) .
(A) 0.114

---

- test.parameters: in isopropanol, 283.38 K
observed.property: solubility (mole fraction)

(Q) Name the recorded solubility (mole fraction) for O=C1CCC(c2ccc(Cl)c(Cl)c2)c2ccccc21 (stereo unspecified) .
(A) 0.00128

---

- test.parameters: in THF, 313.52 K
observed.property: solubility (mole fraction)
Numbers only.

(Q) Name the recorded solubility (mole fraction) for O=C1CCC(c2ccc(Cl)c(Cl)c2)c2ccccc21 (stereo unspecified) .
(A) 0.187

---

- test.parameters: in methanol, 319.04 K
observed.property: solubility (mole fraction)

(Q) Name the recorded solubility (mole fraction) for O=C1CCC(c2ccc(Cl)c(Cl)c2)c2ccccc21 (stereo unspecified) .
(A) 0.00533

---

- test.parameters: in DMF, 318.27 K
observed.property: solubility (mole fraction)
One number for each entry.

(Q) Name the recorded solubility (mole fraction) for O=C1CCC(c2ccc(Cl)c(Cl)c2)c2ccccc21 (stereo unspecified) .
(A) 0.155

---

- test.parameters: in acetone, 282.13 K
observed.property: solubility (mole fraction)
Numbers only.

(Q) Name the recorded solubility (mole fraction) for O=C1CCC(c2ccc(Cl)c(Cl)c2)c2ccccc21 (stereo unspecified) .
(A) 0.0162

---

- test.parameters: in methanol, 313.53 K
observed.property: solubility (mole fraction)
Answers are plain numbers.

(Q) Name the recorded solubility (mole fraction) for O=C1CCC(c2ccc(Cl)c(Cl)c2)c2ccccc21 (stereo unspecified) .
(A) 0.00446

---

- test.parameters: in acetone, 313.74 K
observed.property: solubility (mole fraction)
Give bare numbers.

(Q) Name the recorded solubility (mole fraction) for O=C1CCC(c2ccc(Cl)c(Cl)c2)c2ccccc21 (stereo unspecified) .
(A) 0.0673

---

- test.parameters: in THF, 308.34 K
observed.property: solubility (mole fraction)
Answers are plain numbers.

(Q) Name the recorded solubility (mole fraction) for O=C1CCC(c2ccc(Cl)c(Cl)c2)c2ccccc21 (stereo unspecified) .
(A) 0.162

---

- test.parameters: in methanol, 308.56 K
observed.property: solubility (mole fraction)

(Q) Name the recorded solubility (mole fraction) for O=C1CCC(c2ccc(Cl)c(Cl)c2)c2ccccc21 (stereo unspecified) .
(A) 0.00372

---

- test.parameters: in toluene, 278.18 K
observed.property: solubility (mole fraction)

(Q) Name the recorded solubility (mole fraction) for O=C1CCC(c2ccc(Cl)c(Cl)c2)c2ccccc21 (stereo unspecified) .
(A) 0.0391

---

- test.parameters: in acetone, 292.83 K
observed.property: solubility (mole fraction)
Answers are plain numbers.

(Q) Name the recorded solubility (mole fraction) for O=C1CCC(c2ccc(Cl)c(Cl)c2)c2ccccc21 (stereo unspecified) .
(A) 0.0261
